System: Polyunsaturated fatty acid 5-lipoxygenase (Mus musculus, UniProt P48999) | Read-out: IC50
Sequence (P48999 whole entry): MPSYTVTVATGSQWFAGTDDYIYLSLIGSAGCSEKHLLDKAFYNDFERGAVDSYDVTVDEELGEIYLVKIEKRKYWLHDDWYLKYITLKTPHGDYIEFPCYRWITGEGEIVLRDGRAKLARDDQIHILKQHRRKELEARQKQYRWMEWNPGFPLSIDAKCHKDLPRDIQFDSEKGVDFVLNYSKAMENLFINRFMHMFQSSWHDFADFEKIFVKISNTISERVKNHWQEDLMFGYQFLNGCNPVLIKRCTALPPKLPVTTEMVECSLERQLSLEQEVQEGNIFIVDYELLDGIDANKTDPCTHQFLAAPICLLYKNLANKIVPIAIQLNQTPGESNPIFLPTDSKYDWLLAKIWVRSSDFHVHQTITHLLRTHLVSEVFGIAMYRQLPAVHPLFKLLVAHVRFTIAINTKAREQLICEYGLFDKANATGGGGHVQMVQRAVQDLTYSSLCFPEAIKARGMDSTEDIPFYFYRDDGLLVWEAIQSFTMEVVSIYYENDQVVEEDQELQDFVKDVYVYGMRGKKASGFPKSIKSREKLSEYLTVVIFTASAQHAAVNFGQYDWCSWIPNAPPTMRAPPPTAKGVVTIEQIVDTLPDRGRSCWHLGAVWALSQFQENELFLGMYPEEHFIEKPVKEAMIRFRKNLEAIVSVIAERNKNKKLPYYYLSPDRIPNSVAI
recorded_metric: IC50 (µM)

1. Cc1ccc2oc(Nc3ccccc3)nc2c1 ... 4.6
2. COc1cccc(Nc2nc3cc(C)ccc3o2)c1 ... 6.83
3. Clc1ccc2oc(Nc3ccccc3)nc2c1 ... 4.5
4. COc1ccc2oc(Nc3ccc(C(C)C)cc3)nc2c1 ... 2.64
5. CSc1ccc(Nc2nc3cc(C)ccc3o2)cc1 ... 7.31
6. CCc1ccc(Nc2nc3cc(C)ccc3o2)cc1 ... 0.12
